test-description: In vitro stability in acidic and neutral conditions (SGF, SGF + pepsin, SGF + denatured pepsin, PBS)
applied-conditions: phosphate buffered saline (PBS), pH 7.3

{"molecule": "CC(=O)CC[C@H]1C(=O)N[C@@H](C(C)C)C(=O)N[C@@H](Cc2cc(O)cc(F)c2)C(=O)N2CCCC(N2)C(=O)O[C@H](/C(C)=C/C=C/C(=O)N2CCCCO2)C/C=C/C=C/[C@H](O)[C@H](C)[C@H]1O (stereo partly shown) [Compound 24]", "half-life at 100 µM": "> 1440 min"}

====

test-description: in vivo
applied-conditions: male, mouse, whole blood, po; CD1 mice, p.o. 10 or 5 mg/kg vs i.v. 1 mg/kg; read-out: Oral bioavailability F %

{"molecule": "CCCC(=O)/C=C/C=C(\\C)[C@@H]1C/C=C/C=C/[C@H](O)[C@H](C)[C@@H](O)[C@@H](CCC(C)=O)C(=O)N[C@@H](C(C)C)C(=O)N[C@@H](Cc2cccc(O)c2)C(=O)N2CCCC(N2)C(=O)O1 (some centres unmarked) [Compound 39]", "output-unit": "%", "bioavailability": 0.9}
{"molecule": "CNC(=O)/C=C/C=C(\\C)[C@@H]1C/C=C/C=C/[C@H](O)[C@H](C)[C@@H](O)[C@@H](CCC(C)=O)C(=O)N[C@@H](C(C)C)C(=O)N[C@@H](Cc2cccc(O)c2)C(=O)N2CCCC(N2)C(=O)O1 (some centres unmarked) [Compound 36]", "output-unit": "%", "bioavailability": 0.04}

====

test-description: in vivo
applied-conditions: male, mouse, whole blood, po; CD1 mice, p.o. 10 or 5 mg/kg vs i.v. 1 mg/kg; read-out: Oral bioavailability F %
Procedure: For sanglifehrins, whole blood is analysed. Compounds are formulated in 5% ethanol/5% cremophor EL/90% saline for both p.o. and i.v. administration. […] The concentration of the sanglifehrin or parent compound in the sample is determined via LCMS as follows: 20 μL of blood:H2O (1:1, v/v)/PK sample is added with 20 μL Internal standard (hydroxyl macrocycle, 6) at 100 ng/mL, 20 μL working solution/MeOH and 150 μL of ACN, vortexed for 1 minute at 1500 rpm, and centrifuged at 12000 rpm for 5 min. […]
Each entry below carries its recorded bioavailability.

{"compound": "CC(=O)CC[C@H]1C(=O)N[C@@H](C(C)C)C(=O)N[C@@H](Cc2cccc(O)c2)C(=O)N2CCCC(N2)C(=O)O[C@H](/C(C)=C/C=C/C(=O)OC(C)(C)C)C/C=C/C=C/[C@H](O)[C@H](C)[C@H]1O (stereo partly drawn)", "output-unit": "%", "bioavailability": 7.8}
{"compound": "CON(C)C(=O)/C=C/C=C(\\C)[C@@H]1C/C=C/C=C/[C@H](O)[C@H](C)[C@@H](O)[C@@H](CCC(C)=O)C(=O)N[C@@H](C(C)C)C(=O)N[C@@H](Cc2cccc(O)c2)C(=O)N2CCCC(N2)C(=O)O1 (stereo partly drawn)", "output-unit": "%", "bioavailability": 1.6}
{"compound": "CON(C)C(=O)/C=C/C=C(\\C)[C@@H]1C/C=C/C=C/[C@H](O)[C@H](C)[C@@H](O)[C@@H](CCC(C)=O)C(=O)N[C@@H](C(C)C)C(=O)N[C@@H](Cc2cc(O)cc(F)c2)C(=O)N2CCCC(N2)C(=O)O1 (stereo partly drawn)", "output-unit": "%", "bioavailability": 2.4}
